Taken from patent US11446287B2.

Biological target: Recombinant human EP300 containing the bromodomain (EP300-BD (1040-1161)) (Homo sapiens)
Construct: Recombinant human EP300 bromodomain (EP300-BD (1040-1161))
Sequence (Q09472 1040-1161): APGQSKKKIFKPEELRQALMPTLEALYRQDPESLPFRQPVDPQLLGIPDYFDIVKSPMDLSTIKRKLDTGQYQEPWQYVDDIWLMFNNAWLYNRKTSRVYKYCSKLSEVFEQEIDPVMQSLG
Test: EP300 Alphascreen binding assay
# maps each entry to its IC50

Example entries and their recorded answers appear below.
Cc1noc(C)c1-c1cnc2c(c1)c(-c1ccc(C(=O)O)cc1OC(F)(F)F)cn2-c1ccc(C2CC2)nc1 [P-0388] = 0.1 to 1000 nM
CCOc1cc(C(=O)O)cc(OCC)c1-n1cc(-c2cncc(Cl)c2)c2ncc(-c3c(C)noc3C)cc21 [P-0193] = 0.1 to 1000 nM
Cc1noc(C)c1-c1cnc2c(c1)c(-c1ccc(-c3nn[nH]n3)cc1)cn2C(c1ccccn1)C1CCCC1 (stereo not shown) [P-0024] = 1000 to 8000 nM

Record request: IC50 value, item Cc1noc(C)c1-c1cnc2c(c1)c(-c1ccc(C(=O)O)cc1OC(F)(F)F)c(C)n2C(C1CC1)C1CC1 [P-0343]
0.1 to 1000 nM

###

# maps each entry to its pIC50
Molecular target: Recombinant human BRD4 containing dual bromodomains (BRD4-BD12 (1-477)) (Homo sapiens, UniProt O60885)
Construct: Recombinant human BRD4 containing dual bromodomains (BRD4-BD12 (1-477)); made in house; host or cells: E. coli BL21-CodonPlus (DE3), modified pET vector
Test: BRD4 Alphascreen binding assay
pIC50: −log10 of the molar value.

Cc1noc(C)c1-c1cnc2c(c1)c(-c1c(Cl)cc(C(=O)O)cc1OC(F)(F)F)cn2-c1cccnn1 = 6.00 to 10.00
Cc1noc(C)c1-c1cnc2c(c1)c(-c1ccc(C(=O)O)cc1Cl)cn2C(c1ccccn1)C1CCCC1 (stereo not shown) = 5.10 to 6.00

Record request: pIC50 value, item Cc1noc(C)c1-c1cnc2c(c1)c(-c1ccc(C3(C(=O)O)CC3)cc1)cn2C(c1ccccn1)C1CCCC1 (stereo not shown)
5.10 to 6.00

Record request: pIC50 value, item Cc1noc(C)c1-c1cnc2c(-c3ccccc3C(=O)O)cn(C(C)c3ccccc3)c2c1 (stereo not shown)
5.10 to 6.00

Record request: pIC50 value, item `CCOc1cc(C(=O)O)cc(OCC)c1-n1cc(-c2ccc(F)cc2)c2ncc(-c3c(C)noc3C)cc21`
5.10 to 6.00

Record request: pIC50 value, item `COc1cc(C(=O)O)cc(OCC(F)(F)F)c1-c1cn([C@@H](C)c2ccccn2)c2ncc(-c3c(C)noc3C)cc12`
3.00 to 5.10

Record request: pIC50 value, item `Cc1noc(C)c1-c1cnc2c(c1)c(-c1ccc(C(=O)O)cc1F)cn2[C@@H](C)c1ccccn1`
3.00 to 5.10

###

Molecular target: Recombinant human CBP containing the bromodomain (CBP-BD (1043-1159)) (Homo sapiens)
Construct: Recombinant human CBP bromodomain (CBP-BD (1043-1159))
Sequence (Q92793 1081-1197): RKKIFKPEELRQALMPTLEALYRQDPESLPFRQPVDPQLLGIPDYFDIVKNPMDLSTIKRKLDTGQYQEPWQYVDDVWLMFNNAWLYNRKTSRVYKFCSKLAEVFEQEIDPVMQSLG
Assay: CBP Alphascreen binding assay
Details: read-out: CREBBP (CBP) IC50
measured_attribute: IC50

Example entries and their recorded answers appear below.
COc1cc(C(=O)O)ccc1-c1cn([C@@H](C)c2ccccn2)c2cc(-c3c(C)noc3C)cnc12 = 0.1 to 1000 nM
CCOc1cc(C(=O)O)cc(OCC)c1-n1cc(-c2ccnc(F)c2)c2ncc(-c3c(C)noc3C)cc21 = 0.1 to 1000 nM
Cc1noc(C)c1-c1cnc2c(c1)c(-c1ccc(C(=O)O)cc1)cn2[C@@H](C)c1ccccn1 = 0.1 to 1000 nM

Now take the following molecule into account.
Record request: IC50 value, item `Cc1noc(C)c1-c1cnc2c(CC3CCC3)cn(-c3c(C(=O)O)ccc(Br)c3F)c2c1`
0.1 to 1000 nM

###

Molecular target: Recombinant human BRD4 containing dual bromodomains (BRD4-BD12 (1-477)) (Homo sapiens, UniProt O60885)
Construct: Recombinant human BRD4 containing dual bromodomains (BRD4-BD12 (1-477))
Experiment: BRD4 Alphascreen binding assay
pIC50: −log10 of the molar value.
measured_attribute: pIC50

Example entries and their recorded answers appear below.
Cc1noc(C)c1-c1cnc2c(c1)c(-c1ccc(C(=O)O)cc1OC(F)(F)F)cn2[C@@H](C)c1ccccn1 = 3.00 to 5.10
Cc1noc(C)c1-c1cnc2c(c1)c(C#CC(C)(C)C(=O)O)cn2Cc1ccccc1 = 3.00 to 5.10

Now take the following compound into account.
Record request: pIC50 value, item `Cc1noc(C)c1-c1cnc2c(c1)c(-c1ccc(C(=O)O)cc1OC(F)(F)F)cn2C(C1CC1)C1CC1`
3.00 to 5.10

###

Biological target: Recombinant human BRD4 containing dual bromodomains (BRD4-BD12 (1-477)) (Homo sapiens, UniProt O60885)
Construct: Recombinant human BRD4 containing dual bromodomains (BRD4-BD12 (1-477)); made in house; host or cells: E. coli BL21-CodonPlus (DE3), modified pET vector
Test: BRD4 Alphascreen binding assay
measured_attribute: IC50

Record request: IC50 value, item COc1cc(C(=O)O)cc(OC)c1-n1cc(-c2ccccc2)c2ncc(-c3c(C)noc3C)cc21 [P-0220]
0.0001 to 1 µM

Record request: IC50 value, item Cc1noc(C)c1-c1cnc2c(c1)c(-c1c(F)cc(C(=O)O)cc1F)cn2C(C)c1ccccn1 (stereo not shown) [P-0094]
8 to 1000 µM

###

Molecular target: Recombinant human BRD4 containing dual bromodomains (BRD4-BD12 (1-477)) (Homo sapiens, UniProt O60885)
Construct: Recombinant human BRD4 containing dual bromodomains (BRD4-BD12 (1-477))
Experiment: BRD4 Alphascreen binding assay
pIC50: −log10 of the molar value.
measured_attribute: pIC50

Cc1noc(C)c1-c1cnc2c(Cc3cccc(OCc4ccccc4)c3)cn(-c3c(Cl)cc(C(=O)O)cc3Cl)c2c1 = 3.00 to 5.10
Cc1noc(C)c1-c1cnc2c(c1)c(-c1ccc(C(=O)O)cc1C(F)(F)F)cn2[C@@H](C)c1ccccn1 = 5.10 to 6.00

Record request: pIC50 value, item `CCCn1nc(C(=O)O)c(N)c1-c1cn(-c2ccc(F)cc2F)c2ncc(-c3c(C)noc3C)cc12`
3.00 to 5.10

Record request: pIC50 value, item `Cc1noc(C)c1-c1cnc2c(c1)c(-c1nccc(C(=O)O)n1)cn2[C@@H](C)c1ccccn1`
3.00 to 5.10

Record request: pIC50 value, item `Cc1noc(C)c1-c1cnc2c(-c3cccc(C(=O)O)c3F)c(C(F)(F)F)n([C@@H](C)c3ccccn3)c2c1`
3.00 to 5.10

Record request: pIC50 value, item `CCOc1cc(C(=O)O)nc(OCC)c1-c1cn(-c2ncccc2C#N)c2ncc(-c3c(C)noc3C)cc12`
3.00 to 5.10

Record request: pIC50 value, item `CCOc1cc(C(=O)O)c(F)cc1-c1cn(C2CCN(C(=O)CO)CC2)c2ncc(-c3c(C)noc3C)cc12`
3.00 to 5.10

###

# maps each entry to its IC50
Molecular target: Recombinant human BRD4 containing dual bromodomains (BRD4-BD12 (1-477)) (Homo sapiens, UniProt O60885)
Construct: Recombinant human BRD4 containing dual bromodomains (BRD4-BD12 (1-477))
Experiment: BRD4 Alphascreen binding assay

Example entries and their recorded answers appear below.
Cc1noc(C)c1-c1cnc2c(c1)c(-c1ccc(C(=O)O)cc1OC(F)(F)F)cn2-c1ccc(C(=O)O)cc1 [P-0322] = 1 to 8 µM
Cc1noc(C)c1-c1cnc2c(c1)c(-c1c(Cl)cc(C(=O)O)cc1Cl)cn2[C@@H](C)c1ccccn1 [P-0197] = 8 to 1000 µM
Cc1noc(C)c1-c1cnc2c(c1)c(-c1c(Cl)cc(C(=O)O)cc1OC(F)(F)F)cn2-c1ncccc1C#N [P-0395] = 1 to 8 µM

Now take the following molecule into account.
Record request: IC50 value, item Cc1noc(C)c1-c1cnc2c(c1)c(-c1ccc(C(=O)O)cc1C1CC1)cn2[C@@H](C)c1ccccn1 [P-0181]
8 to 1000 µM

###

# maps each entry to its IC50
Target: Recombinant human EP300 containing the bromodomain (EP300-BD (1040-1161)) (Homo sapiens)
Construct: Recombinant human EP300 bromodomain (EP300-BD (1040-1161))
Test: EP300 Alphascreen binding assay

Cc1noc(C)c1-c1cnc2c(-c3ccccc3Cl)cn(C(C)(c3ccccn3)c3ccccn3)c2c1 = 0.0001 to 1 µM
CCOc1cc(C(=O)O)cc(F)c1-n1cc(CC2CCC2)c2ncc(-c3c(C)noc3C)cc21 = 0.0001 to 1 µM
CCOc1cc(C(=O)O)cc(OCC)c1-n1cc(-c2cnn(C(F)F)c2)c2ncc(-c3c(C)noc3C)cc21 = 0.0001 to 1 µM

Record request: IC50 value, item `Cc1noc(C)c1-c1cnc2c(c1)c(-c1ccc(C(=O)O)cc1OC(C)C)c(C)n2C(C1CC1)C1CC1`
0.0001 to 1 µM

Record request: IC50 value, item Cc1noc(C)c1-c1cnc2c(c1)c(-c1ccc(C3(C(=O)O)CC3)cc1)cn2C(c1ccccn1)C1CCCC1 (stereo not drawn)
0.0001 to 1 µM

Record request: IC50 value, item `Cc1noc(C)c1-c1cnc2c(c1)c(-c1cnn(CC(=O)O)c1)cn2-c1ncccc1C#CC1CC1`
0.0001 to 1 µM

Record request: IC50 value, item `COc1ccc(C(=O)O)cc1-c1c(C(F)(F)F)n([C@@H](C)c2ccccn2)c2cc(-c3c(C)noc3C)cnc12`
0.0001 to 1 µM

Record request: IC50 value, item `Cc1noc(C)c1-c1cnc2c(c1)c(-c1ccc(C(=O)O)cc1OC(F)(F)F)cn2-c1ncccc1C#CC1CC1`
0.0001 to 1 µM

Record request: IC50 value, item `Cc1noc(C)c1-c1cnc2c(c1)c(-c1ccc(C(=O)O)cc1OC(F)(F)F)cn2-c1cnc(N2CCC2)nc1`
0.0001 to 1 µM

Record request: IC50 value, item `C=C(C)c1ccccc1-n1cc(-c2ccc(C(=O)O)cc2OC(F)(F)F)c2cc(-c3c(C)noc3C)cnc21`
0.0001 to 1 µM

Record request: IC50 value, item `CCOc1cc(C(=O)O)cc(OCC)c1-n1cc(-c2cnc(OC)nc2)c2ncc(-c3c(C)noc3C)cc21`
0.0001 to 1 µM

Record request: IC50 value, item `Cc1noc(C)c1-c1cnc2c(c1)c(-c1c(Cl)cc(C(=O)O)cc1OC(F)(F)F)cn2-c1cccnn1`
0.0001 to 1 µM

Record request: IC50 value, item `Cc1noc(C)c1-c1cnc2c(C(=O)c3cccc(OC(F)F)c3)cn(-c3c(Cl)cc(C(=O)O)cc3Cl)c2c1`
0.0001 to 1 µM

Record request: IC50 value, item `COC(=O)c1ccc(-c2cn(S(=O)(=O)c3ccc(C)cc3)c3ncc(-c4c(C)noc4C)cc23)cc1`
8 to 1000 µM

Record request: IC50 value, item `CCCn1nc(C(=O)O)c(N)c1-c1cn(-c2ccc(F)cc2F)c2ncc(-c3c(C)noc3C)cc12`
0.0001 to 1 µM
